Entries and their Heart/Blood Counts/Gram Ratio
- Test: Rat biodistribution of Tc-99m complexes
- Run parameters: 60 min p.i.

- Molecule: "CCOCP(CCCP(COCC)COCC)COCC"
  Heart/Blood Counts/Gram Ratio: 1.3
- Molecule: "CCOCCP(CCCP(CCOCC)CCOCC)CCOCC"
  Heart/Blood Counts/Gram Ratio: 0.52
- Molecule: "CCOCC(COCC)CP(CCP(CC(COCC)COCC)CC(COCC)COCC)CC(COCC)COCC"
  Heart/Blood Counts/Gram Ratio: 1.0
- Molecule: "FC(F)(F)COCCCP(CCCOCC(F)(F)F)CCP(CCCOCC(F)(F)F)CCCOCC(F)(F)F"
  Heart/Blood Counts/Gram Ratio: 0.3
- Molecule: "CCOCCP(CCOC(C)C)CCP(CCOCC)CCOC(C)C (stereo not shown)"
  Heart/Blood Counts/Gram Ratio: 13.4
- Molecule: "C1CC(CP(CCP(CC2CCOCC2)CC2CCOCC2)CC2CCOCC2)CCO1"
  Heart/Blood Counts/Gram Ratio: 0.41
- Molecule: "C1COC(CP(CCP(CC2CCCO2)CC2CCCO2)CC2CCCO2)C1 (stereo not shown)"
  Heart/Blood Counts/Gram Ratio: 39.7
- Molecule: "CCOCCCP(CCCOCC)CCP(CCCOCC)CCCOCC"
  Heart/Blood Counts/Gram Ratio: 20.0
- Molecule: "COCCP(CCOC)CCP(CCOC)CCOC"
  Heart/Blood Counts/Gram Ratio: 5.4
- Molecule: "COC(C)CCP(CCC(C)OC)CCP(CCC(C)OC)CCC(C)OC (stereo not shown)"
  Heart/Blood Counts/Gram Ratio: 9.4
- Molecule: "CCOCCP(CCOCC)CCP(CCOCC)CCOCC [Compound 1, (EtOC2 H4)2 P--C2 H4 --P(C2 H4 OEt)2]"
  Heart/Blood Counts/Gram Ratio: 86.4
- Molecule: "CCOCCP(CCOCC)CC(CP(CCOCC)CCOCC)OC"
  Heart/Blood Counts/Gram Ratio: 5.69
- Molecule: "COC(CCP(CCC(OC)OC)CCP(CCC(OC)OC)CCC(OC)OC)OC"
  Heart/Blood Counts/Gram Ratio: 0.6
- Molecule: "CCOCCP(CCOC)CCP(CCOC)CCOCC (stereo not shown)"
  Heart/Blood Counts/Gram Ratio: 15.5
- Molecule: "CCOCCP(CCOCC)c1ccccc1P(CCOCC)CCOCC"
  Heart/Blood Counts/Gram Ratio: 2.62
- Molecule: "CC1(C)OCC(CP(CCP(CC2COC(C)(C)O2)CC2COC(C)(C)O2)CC2COC(C)(C)O2)O1 (stereo not shown)"
  Heart/Blood Counts/Gram Ratio: 12.3
- Molecule: "C1OCC(CP(CCP(CC2COCO2)CC2COCO2)CC2COCO2)O1 (stereo not shown)"
  Heart/Blood Counts/Gram Ratio: 0.5
- Molecule: "CCCOCCP(CCOC)CCP(CCOC)CCOCCC (stereo not shown)"
  Heart/Blood Counts/Gram Ratio: 11.5
- Molecule: "C1COC(CP(CCCP(CC2CCCO2)CC2CCCO2)CC2CCCO2)C1 (stereo not shown)"
  Heart/Blood Counts/Gram Ratio: 3.8

###

- Test: Rat biodistribution of Tc-99m complexes
- Run parameters: 2 min p.i.
Entries and their Heart/Liver Counts/Gram Ratio

- Compound: "COC(C)(C)CCP(CCP(CCC(C)(C)OC)CCC(C)(C)OC)CCC(C)(C)OC [Compound 16]"
  Heart/Liver Counts/Gram Ratio: 0.58
- Compound: "COCC(COC)CP(CCP(CC(COC)COC)CC(COC)COC)CC(COC)COC [Compound 17]"
  Heart/Liver Counts/Gram Ratio: 0.92
- Compound: "COC(C)CP(CCP(CC(C)OC)CC(C)OC)CC(C)OC (centres unmarked) [Compound 11]"
  Heart/Liver Counts/Gram Ratio: 0.57
- Compound: "C1COC(CP(CCCP(CC2CCCO2)CC2CCCO2)CC2CCCO2)C1 (centres unmarked) [Compound 35]"
  Heart/Liver Counts/Gram Ratio: 0.28
- Compound: "CCOCCCP(CCOC)CCP(CCCOCC)CCOC (centres unmarked) [Compound 30]"
  Heart/Liver Counts/Gram Ratio: 1.28
- Compound: "COC(CCP(CCC(OC)OC)CCP(CCC(OC)OC)CCC(OC)OC)OC [Compound 19]"
  Heart/Liver Counts/Gram Ratio: 1.29
- Compound: "CCOCC[P+]1(CCOCC)CC[P+](CCOCC)(CCOCC)[Tc-3]12(=[O])(=[O])[P+](CCOCC)(CCOCC)CC[P+]2(CCOCC)CCOCC [[TcO2 (P53)2]^+]"
  Heart/Liver Counts/Gram Ratio: 1.52
- Compound: "COCCP(CCOC)CCP(CCOC)CCOC [Compound 2]"
  Heart/Liver Counts/Gram Ratio: 1.57
- Compound: "COCC(C)CP(CCP(CC(C)COC)CC(C)COC)CC(C)COC (centres unmarked) [Compound 14]"
  Heart/Liver Counts/Gram Ratio: 0.98
- Compound: "FC(F)(F)COCCCP(CCCOCC(F)(F)F)CCP(CCCOCC(F)(F)F)CCCOCC(F)(F)F [Compound 10]"
  Heart/Liver Counts/Gram Ratio: 0.16
- Compound: "CCOC=CP(C=COCC)CCP(C=COCC)C=COCC [Compound 6]"
  Heart/Liver Counts/Gram Ratio: 0.18
- Compound: "CCOCCCP(CCCOCC)CCP(CCCOCC)CCCOCC [Compound 4]"
  Heart/Liver Counts/Gram Ratio: 0.81
- Compound: "CCOCCP(CCOCC)c1ccccc1P(CCOCC)CCOCC [Compound 37]"
  Heart/Liver Counts/Gram Ratio: 0.35
- Compound: "CCOCCP(CCOC)CCP(CCOC)CCOCC (centres unmarked) [Compound 28]"
  Heart/Liver Counts/Gram Ratio: 1.28
- Compound: "CCOCCP(CCOCCF)CCP(CCOCC)CCOCCF (centres unmarked) [Compound 32]"
  Heart/Liver Counts/Gram Ratio: 1.27
- Compound: "COC(C)CCP(CCC(C)OC)CCP(CCC(C)OC)CCC(C)OC (centres unmarked) [Compound 15]"
  Heart/Liver Counts/Gram Ratio: 1.01
- Compound: "CCOCCOCCP(CCOCCOCC)CCP(CCOCCOCC)CCOCCOCC [Compound 8]"
  Heart/Liver Counts/Gram Ratio: 0.41
- Compound: "CC1(C)OCC(CP(CCP(CC2COC(C)(C)O2)CC2COC(C)(C)O2)CC2COC(C)(C)O2)O1 (centres unmarked) [Compound 22]"
  Heart/Liver Counts/Gram Ratio: 0.79
- Compound: "CCCOCCP(CCOC)CCP(CCOC)CCOCCC (centres unmarked) [Compound 29]"
  Heart/Liver Counts/Gram Ratio: 0.95
- Compound: "C1OCC(CP(CCP(CC2COCO2)CC2COCO2)CC2COCO2)O1 (centres unmarked) [Compound 21]"
  Heart/Liver Counts/Gram Ratio: 0.58
- Compound: "CCOCCP(CCOCC)CCP(CCOCC)CCOCC [Compound 1, (EtOC2 H4)2 P--C2 H4 --P(C2 H4 OEt)2]"
  Heart/Liver Counts/Gram Ratio: 1.52
- Compound: "C1COC(CP(CCP(CC2CCCO2)CC2CCCO2)CC2CCCO2)C1 (centres unmarked) [Compound 24]"
  Heart/Liver Counts/Gram Ratio: 1.74
- Compound: "C1CC(CP(CCP(CC2CCOCC2)CC2CCOCC2)CC2CCOCC2)CCO1 [Compound 25]"
  Heart/Liver Counts/Gram Ratio: 0.94

###

- Test: Rat biodistribution of Tc-99m complexes
- Run parameters: 60 min p.i.
Categorized via Heart/Liver Counts/Gram Ratio: small value = under 0.5, mid value = from 0.5 up to 0.8, large value = 0.8 and over

- Compound: "CCCOCCP(CCOC)CCP(CCOC)CCOCCC (stereo not shown)"
  Assigned class: "large value"
- Compound: "C1OCC(CP(CCP(CC2COCO2)CC2COCO2)CC2COCO2)O1 (stereo not shown)"
  Assigned class: "small value"
- Compound: "CCOCCOCCP(CCOCCOCC)CCP(CCOCCOCC)CCOCCOCC"
  Assigned class: "small value"
- Compound: "CCOCCCP(CCOC)CCP(CCCOCC)CCOC (stereo not shown)"
  Assigned class: "large value"
- Compound: "COC(CCP(CCC(OC)OC)CCP(CCC(OC)OC)CCC(OC)OC)OC"
  Assigned class: "mid value"
- Compound: "CCOC=CP(C=COCC)CCP(C=COCC)C=COCC"
  Assigned class: "small value"
- Compound: "COCC(C)CP(CCP(CC(C)COC)CC(C)COC)CC(C)COC (stereo not shown)"
  Assigned class: "small value"
- Compound: "COC(C)CP(CCP(CC(C)OC)CC(C)OC)CC(C)OC (stereo not shown)"
  Assigned class: "mid value"
- Compound: "CCC(CP(CCP(CC(CC)OC)CC(CC)OC)CC(CC)OC)OC (stereo not shown)"
  Assigned class: "mid value"
- Compound: "CCOCP(CCCP(COCC)COCC)COCC"
  Assigned class: "small value"
- Compound: "CCOCCP(CCOCC)c1ccccc1P(CCOCC)CCOCC"
  Assigned class: "mid value"
- Compound: "COCCCP(CCCOC)CCP(CCCOC)CCCOC"
  Assigned class: "large value"
- Compound: "CCOCCP(CCOCCF)CCP(CCOCC)CCOCCF (stereo not shown)"
  Assigned class: "large value"
